System: SK-MEL-28
Test: NCI tumour cell line growth inhibition, 48 h
Calls of active or inactive are those of the source. Cut-off read from the data, not from the text of the source: active = GI50 up to about 1.1 µM and inactive = higher.
Hi there, I'd appreciate the recorded GI50 for every entry that follows.

Q: Could you share which GI50 value was measured for CCOC(=O)C12CCC(=O)N1N(C)c1ncccc1N2 (stereo not given) ?
Ans: > 100 µM (inactive)

Q: Endpoint output: GI50 of COC(=O)C1Cc2cc3c(cc2C1=O)CCCC3 (stereo not given) . Value?
Ans: > 100 µM (inactive)

Q: Look up GI50: "C=CCn1cnc2c(O)nc(Nc3ccccc3)nc21"
Ans: > 100 µM (inactive)

Q: Endpoint output: GI50 of Cc1ccccc1OCC(COC(=O)Nc1ccccc1)OC(=O)Nc1ccccc1 (stereo not given) . Value?
Ans: > 100 µM (inactive)

Q: Endpoint output: GI50 of "NC(N)=NCCC[C@H](N)C(=O)NCC(=O)N[C@@H](CC(=O)O)c1ncc(NC(=O)C(F)(F)F)o1" . Value?
Ans: > 25 µM (inactive)

Q: Consider the compound NC(=O)N/N=C(/CC1C(=O)Oc2ccccc21)c1ccccc1O (stereo not given) and give its measured GI50.
Ans: 48.3 µM (inactive)

Q: What value of GI50 has been recorded for this entry: "O=C(O)c1cc(=O)c2c([nH]c3ccccc32)s1"
Ans: > 100 µM (inactive)

Q: Need GI50, item [N-]=[N+]=CC(=O)OCC1NC(=O)C(COC(=O)C=[N+]=[N-])NC1=O (stereo not given)
Ans: > 100 µM (inactive)

Q: So what's the measured GI50 for this one? "CCNC1=C(NC(=O)c2ccc(F)cc2)C(=O)c2ccccc2C1=O"
Ans: > 100 µM (inactive)

Q: Recorded GI50 of "O=C1Nc2ccccc2/C1=N/Nc1ncccc1[N+](=O)[O-]" , please.
Ans: 22.6 µM (inactive)

// data source = ChEMBL document CHEMBL1201862
